System: PAF-induced mortality
Assay: Test 3: PAF-induced mortality in mice (p.o.)
Type: in vivo, mouse (Swiss)
Conditions: Mus musculus, po, 2 h, 1 hour before C18-PAF 100 mcg/kg plus propanolol 1 mg/kg i.v., inhibition of mortality, observed 2 hours after PAF, read-out: ID50 (the source's name)
READOUT_TYPE: ED50 (mg/kg)
Field: numeric (mg/kg). Do not append units.

Reported PAF-induced mortality ED50 for item CCCCCCCCCCCCCCCCOC1CC(COC(=O)N(Cc2cccc[n+]2CC)C(C)=O)CO1 (racemic) [Compound 8] was 80

Reported PAF-induced mortality ED50 for item CCCCCCCCCCCCCCCCCCOC1CC(COC(=O)N(Cc2cccc[n+]2CC)C(C)=O)CO1 (racemic) [Compound 4] was 14

Reported PAF-induced mortality ED50 for item CCCCCCCCCCCCCCCCCCNC(=O)OCC(COC(=O)N(Cc1cccc[n+]1CC)C(C)=O)OC (stereo not shown) [CV-6209, reference compound] was 70

Where do the numbers come from? From patent US4980362A.
